Below, each entry is listed alongside its reported IC50.
- TESTED_TARGET: cMET enzyme (amino acids 1023-1360) (Homo sapiens)
- Sequence (P08581 1023-1360): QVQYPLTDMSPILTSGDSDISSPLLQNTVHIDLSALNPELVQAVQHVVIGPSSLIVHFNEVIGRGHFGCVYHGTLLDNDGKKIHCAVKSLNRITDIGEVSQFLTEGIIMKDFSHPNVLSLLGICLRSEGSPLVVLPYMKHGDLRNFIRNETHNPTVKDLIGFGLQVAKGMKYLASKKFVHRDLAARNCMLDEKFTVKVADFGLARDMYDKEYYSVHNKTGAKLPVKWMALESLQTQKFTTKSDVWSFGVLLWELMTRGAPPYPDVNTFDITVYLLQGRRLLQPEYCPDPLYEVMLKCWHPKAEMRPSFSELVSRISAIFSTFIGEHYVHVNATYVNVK
Structures can show the parent of a compound that is named as a salt.

Prompt: Query IC50 on cMET enzyme (amino acids 1023-1360) (Homo sapiens) for CNC(=O)c1ccc(-c2ccc3nnc(C(F)(F)c4ccc5nc(NC(=O)C6CC6)cn5n4)n3c2)cc1
Response: < 30 nM

Prompt: What is its IC50 for cMET enzyme (amino acids 1023-1360) (Homo sapiens)? Entry: Cn1cc(-c2ccc3nnn(Cc4ccc5nc(NC(=O)C6CC6)cn5n4)c3c2)cn1 [13 (TFA Salt)]
Response: 30 to 59 nM

Prompt: Which IC50 is reported with cMET enzyme (amino acids 1023-1360) (Homo sapiens) for this entry: COc1cncc(-c2ccc3nnn(Cc4ccc5nc(NC(=O)C6CC6)cn5n4)c3c2)c1 ?
Response: 60 to 100 nM

Prompt: Quick check: IC50 on cMET enzyme (amino acids 1023-1360) (Homo sapiens), item CCOc1ccc(-c2ccc3nnc(C(C)c4ccc5nc(NC(=O)C6CC6)cn5n4)n3c2)cc1 (stereo not shown) ?
Response: < 30 nM

Prompt: GET /values?readout=IC50&system=cMET enzyme (amino acids 1023-1360) (Homo sapiens)&item= O=C(O)c1ccc2nnc(Sc3ccc4nc(NC(=O)C5CC5)cn4n3)n2c1
Response: > 100 nM

Prompt: State its IC50 on cMET enzyme (amino acids 1023-1360) (Homo sapiens): Cc1csc(-c2ccc3nnc(C(F)(F)c4ccc5nc(NC(=O)C6CC6)cn5n4)n3c2)c1
Response: < 30 nM

Prompt: What reported IC50 corresponds to O=C(Nc1cn2nc(Sc3nnc4ccc(-c5nn[nH]n5)cn34)ccc2n1)C1CC1 on cMET enzyme (amino acids 1023-1360) (Homo sapiens)?
Response: > 100 nM

Prompt: Write down the reported IC50 of Cc1ccncc1-c1ccc2nnc(C(F)(F)c3ccc4nc(NC(=O)C5CC5)cn4n3)n2c1 , test system: cMET enzyme (amino acids 1023-1360) (Homo sapiens).
Response: 250 to 630 nM

Prompt: API: value(readout=IC50, system=cMET enzyme (amino acids 1023-1360) (Homo sapiens)) for record CC(C)CNC(=O)c1ccc2nnc(Sc3ccc4nc(NC(=O)C5CC5)cn4n3)n2c1
Response: > 100 nM

Prompt: Under cMET enzyme (amino acids 1023-1360) (Homo sapiens): IC50 value of N#Cc1cc(-c2ccc3nnc(Sc4ccc5nc(NC(=O)C6CC6)cn5n4)n3c2)ccc1OCCO ?
Response: < 30 nM

Prompt: Record lookup: for cMET enzyme (amino acids 1023-1360) (Homo sapiens), what IC50 belongs to Cn1cc(-c2ccc3nnn(Cc4ccc5nc(NC(=O)C6CC6)cn5n4)c3c2)cn1 [13 (HCl Salt)] ?
Response: 30 to 59 nM

Prompt: Give the reported IC50 for CNC(=O)c1ccc(-c2ccc3nnc(C(C)c4ccc5nc(NC(=O)C6CC6)cn5n4)n3c2)cc1 (stereo not shown) (system: cMET enzyme (amino acids 1023-1360) (Homo sapiens)).
Response: < 30 nM

Prompt: Lookup: IC50 / cMET enzyme (amino acids 1023-1360) (Homo sapiens) / O=C(Nc1cn2nc(C(F)(F)c3nnc4ccc(-c5cnoc5)cn34)ccc2n1)C1CC1
Response: 30 to 59 nM

Prompt: So what IC50 did CCS(=O)(=O)c1cccc(-c2ccc3nnn(Cc4ccc5nc(NC(=O)C6CC6)cn5n4)c3c2)c1 get with cMET enzyme (amino acids 1023-1360) (Homo sapiens)?
Response: 30 to 59 nM

Prompt: Test system cMET enzyme (amino acids 1023-1360) (Homo sapiens); read-out IC50; what value for O=C(Nc1cn2nc(Sc3nnc4ccccn34)ccc2n1)C1CC1 [3 (TFA Salt)] ?
Response: > 100 nM

Prompt: Lab note: need IC50 for Cn1cc(-c2ccc3nnc(C(F)(F)c4ccc5nc(NC(=O)C6CC6)cn5n4)n3c2)cn1 [45 (HCl Salt)] on cMET enzyme (amino acids 1023-1360) (Homo sapiens), anyone have it?
Response: < 30 nM
